Target: androgen receptor (AR-LBD) (Rattus norvegicus)
Construct: 5 μL of 2×AR-LBD/Fluoromone AL Red Complex contained in the kit; purchased Invitrogen
Test: Evaluation of androgen receptor affinity (PolarScreen Androgen Receptor Competitor Assay Kit, Red; fluorescence polarization)
Conditions: 22° C. for 5 hours, relative to binding rate of 1 μM DHT, read-out: AR affinity (pEC50) (converted)
Procedure: Evaluation of an Androgen Receptor Affinity To examine the interaction of a compound with an androgen receptor, evaluation was carried out in accordance with the following procedure using PolarScreen™ Androgen Receptor Competitor Assay Kit, Red (Invitrogen). To 2 wells each of a 384 well black plate was added 5 μL of the compound solution. […] After 5 hours of the reaction, fluorescence polarization was measured and the affinity was evaluated. […]
Reported EC50 values follow for various compounds

compound	measurementTarget	EC50
Cc1sc(N(Cc2ccccc2)c2ccc3[nH]ccc3c2)nc1C(=O)NS(C)(=O)=O [Compound 336]	androgen receptor (AR-LBD) (Rattus norvegicus)	> 2000 nM
Cc1sc(N(Cc2ccc3ncsc3c2)c2ccc(C#N)cc2)nc1C(=O)NS(C)(=O)=O [Compound 50]	androgen receptor (AR-LBD) (Rattus norvegicus)	79.4 nM
Cc1sc(N(Cc2ccc(Br)c(F)c2)c2ccc(C#N)cc2)nc1C(=O)NS(C)(=O)=O [Example 181]	androgen receptor (AR-LBD) (Rattus norvegicus)	31.6 nM
Cc1sc(N(Cc2ccccc2)c2cc3ccccc3cn2)nc1C(=O)NS(C)(=O)=O [Compound 745]	androgen receptor (AR-LBD) (Rattus norvegicus)	> 2000 nM

* * *

Reported EC50 values follow for various compounds
Target: androgen receptor (AR-LBD) (Rattus norvegicus, UniProt P15207)
Construct: 5 μL of 2×AR-LBD/Fluoromone AL Red Complex contained in the kit; purchased Invitrogen
Sequence (P15207 651-882 limits assumed): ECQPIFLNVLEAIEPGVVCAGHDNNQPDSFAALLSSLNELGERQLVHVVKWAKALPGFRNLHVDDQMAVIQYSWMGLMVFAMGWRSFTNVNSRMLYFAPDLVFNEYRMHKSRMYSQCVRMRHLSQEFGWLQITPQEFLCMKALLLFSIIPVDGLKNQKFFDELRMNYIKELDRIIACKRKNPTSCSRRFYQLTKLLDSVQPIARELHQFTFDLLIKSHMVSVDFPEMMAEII
Test: Evaluation of androgen receptor affinity (PolarScreen Androgen Receptor Competitor Assay Kit, Red; fluorescence polarization)
Conditions: 22° C. for 5 hours, relative to binding rate of 1 μM DHT, read-out: AR affinity (pEC50) (converted)

compound	measurementTarget	qualifierOperator	EC50 (µM)
COc1ccc(CN(c2ccc(C#N)cc2)c2nc(C(=O)NS(C)(=O)=O)c(C)s2)nc1	androgen receptor (AR-LBD) (Rattus norvegicus, UniProt P15207)	=	0.794
Cc1sc(N(CC(=O)C2CCCCC2)c2ccc(C#N)cc2)nc1C(=O)NS(C)(=O)=O	androgen receptor (AR-LBD) (Rattus norvegicus, UniProt P15207)	>	2
COCCCS(=O)(=O)NC(=O)c1nc(N(Cc2ncc(Cl)cc2F)c2ccc(C#N)cc2)sc1C	androgen receptor (AR-LBD) (Rattus norvegicus, UniProt P15207)	=	0.2
Cc1sc(N(Cc2ccccc2)c2ccc(F)c(F)c2)nc1C(=O)NS(C)(=O)=O	androgen receptor (AR-LBD) (Rattus norvegicus, UniProt P15207)	=	0.398
Cc1sc(N(Cc2cccc(OC(F)(F)F)c2)c2ccc(C#N)cc2)nc1C(=O)NS(C)(=O)=O	androgen receptor (AR-LBD) (Rattus norvegicus, UniProt P15207)	=	0.0316
Cc1nc(CCN(c2ccc(C#N)cc2)c2nc(C(=O)NS(C)(=O)=O)c(C)s2)cs1	androgen receptor (AR-LBD) (Rattus norvegicus, UniProt P15207)	>	2
Cc1oc(N(Cc2ccccc2OC(F)F)c2ccc(C#N)cc2)nc1C(=O)NS(C)(=O)=O	androgen receptor (AR-LBD) (Rattus norvegicus, UniProt P15207)	=	0.2
Cc1sc(N(CCc2ccc(C#N)cc2)Cc2ccc(OC(F)(F)F)cc2)nc1C(=O)NS(=O)(=O)C1CC1	androgen receptor (AR-LBD) (Rattus norvegicus, UniProt P15207)	=	0.158
Cc1sc(N(CCn2cc(C#N)cn2)Cc2ccc(Cl)cc2)nc1C(=O)NS(C)(=O)=O	androgen receptor (AR-LBD) (Rattus norvegicus, UniProt P15207)	=	0.2
Cc1sc(N(Cc2ccc(OC(F)(F)F)cc2F)c2ccc(C#N)cc2)nc1C(=O)NS(C)(=O)=O	androgen receptor (AR-LBD) (Rattus norvegicus, UniProt P15207)	=	0.0398
Cc1sc(N(Cc2cccc3ccsc23)c2ccc(C#N)cc2)nc1C(=O)NS(C)(=O)=O	androgen receptor (AR-LBD) (Rattus norvegicus, UniProt P15207)	=	0.0251
Cc1sc(N(CCc2ccc(OC(F)F)cc2)Cc2ccc(F)cc2)nc1C(=O)NS(C)(=O)=O	androgen receptor (AR-LBD) (Rattus norvegicus, UniProt P15207)	=	0.0631
Cc1sc(N(Cc2ccc(OC(F)(F)F)cc2)c2ccc(C#N)cc2)nc1C(=O)NS(=O)(=O)CC1CCOC1 (stereo not shown)	androgen receptor (AR-LBD) (Rattus norvegicus, UniProt P15207)	=	0.0316
Cc1sc(N(Cc2ccccc2)c2ccc3ccccc3c2)nc1C(=O)NS(C)(=O)=O	androgen receptor (AR-LBD) (Rattus norvegicus, UniProt P15207)	=	0.2
Cc1sc(N(CCc2ccccc2Cl)Cc2ccccc2)nc1C(=O)NS(C)(=O)=O	androgen receptor (AR-LBD) (Rattus norvegicus, UniProt P15207)	=	0.126
Cc1sc(N(Cc2cccc(N)c2)c2ccc(C#N)cc2)nc1C(=O)NS(C)(=O)=O	androgen receptor (AR-LBD) (Rattus norvegicus, UniProt P15207)	=	0.316
Cc1sc(N(Cc2cccc3nonc23)c2ccc(C#N)cc2)nc1C(=O)NS(C)(=O)=O	androgen receptor (AR-LBD) (Rattus norvegicus, UniProt P15207)	=	0.158
Cc1sc(N(Cc2ccc(C(F)(F)F)cc2F)c2ccc(C#N)cc2)nc1C(=O)NS(C)(=O)=O	androgen receptor (AR-LBD) (Rattus norvegicus, UniProt P15207)	=	0.0316
Cc1sc(N(Cc2cc(C(F)(F)F)ccc2C(F)(F)F)c2ccc(C#N)cc2)nc1C(=O)NS(C)(=O)=O	androgen receptor (AR-LBD) (Rattus norvegicus, UniProt P15207)	>	2
Cc1ccc(CN(c2ccc(C#N)cc2)c2nc(C(=O)NS(C)(=O)=O)c(C)s2)cc1F	androgen receptor (AR-LBD) (Rattus norvegicus, UniProt P15207)	=	0.0316
Cc1nc(CN(CCc2ccc(Cl)cc2)c2nc(C(=O)NS(C)(=O)=O)c(C)s2)cs1	androgen receptor (AR-LBD) (Rattus norvegicus, UniProt P15207)	=	0.0631
Cc1sc(N(Cc2ccc(-c3ccc(F)cn3)nc2)c2ccc(C#N)cc2)nc1C(=O)NS(C)(=O)=O	androgen receptor (AR-LBD) (Rattus norvegicus, UniProt P15207)	=	0.316
Cc1sc(N(Cc2ccc(OC(F)(F)F)c(Cl)c2)c2ccc(C#N)cc2)nc1C(=O)NS(C)(=O)=O	androgen receptor (AR-LBD) (Rattus norvegicus, UniProt P15207)	=	0.02
Cc1sc(N(Cc2ccccc2)c2ccc(C#N)cc2)nc1C(=O)NS(=O)(=O)CCN1CCCCC1	androgen receptor (AR-LBD) (Rattus norvegicus, UniProt P15207)	>	2
COCCCS(=O)(=O)NC(=O)c1nc(N(Cc2ccc(C(F)(F)F)nc2)c2ccc(C#N)cc2)sc1C1CC1	androgen receptor (AR-LBD) (Rattus norvegicus, UniProt P15207)	=	0.251
Cc1sc(N(Cc2ccc(OC(F)(F)F)cc2)c2ccc(C#N)cc2)nc1C(=O)NS(=O)(=O)CCCC#N	androgen receptor (AR-LBD) (Rattus norvegicus, UniProt P15207)	=	0.0398
Cc1oc(N(Cc2cccc(C#N)c2)c2ccc(C#N)cc2)nc1C(=O)NS(C)(=O)=O	androgen receptor (AR-LBD) (Rattus norvegicus, UniProt P15207)	=	0.251
Cc1oc(N(Cc2nc3ccccc3s2)c2ccc(C#N)cc2)nc1C(=O)NS(C)(=O)=O	androgen receptor (AR-LBD) (Rattus norvegicus, UniProt P15207)	=	0.158
COCCCS(=O)(=O)NC(=O)c1nc(N(CCc2ccc(C#N)cc2)Cc2ccc(OC(F)F)cc2)oc1C	androgen receptor (AR-LBD) (Rattus norvegicus, UniProt P15207)	=	0.0398
Cc1sc(N(Cc2ccccc2)c2ccc(C#N)cc2)nc1C(=O)NS(C)(=O)=O	androgen receptor (AR-LBD) (Rattus norvegicus, UniProt P15207)	=	0.0631
Cc1sc(N(Cc2cccs2)c2ccc(C#N)cc2)nc1C(=O)NS(C)(=O)=O	androgen receptor (AR-LBD) (Rattus norvegicus, UniProt P15207)	=	0.0501

* * *

Molecular target: human androgen receptor (Homo sapiens, UniProt P10275)
Construct: expressed in transfected cells; host or cells: HEK293
Sequence (P10275 whole entry): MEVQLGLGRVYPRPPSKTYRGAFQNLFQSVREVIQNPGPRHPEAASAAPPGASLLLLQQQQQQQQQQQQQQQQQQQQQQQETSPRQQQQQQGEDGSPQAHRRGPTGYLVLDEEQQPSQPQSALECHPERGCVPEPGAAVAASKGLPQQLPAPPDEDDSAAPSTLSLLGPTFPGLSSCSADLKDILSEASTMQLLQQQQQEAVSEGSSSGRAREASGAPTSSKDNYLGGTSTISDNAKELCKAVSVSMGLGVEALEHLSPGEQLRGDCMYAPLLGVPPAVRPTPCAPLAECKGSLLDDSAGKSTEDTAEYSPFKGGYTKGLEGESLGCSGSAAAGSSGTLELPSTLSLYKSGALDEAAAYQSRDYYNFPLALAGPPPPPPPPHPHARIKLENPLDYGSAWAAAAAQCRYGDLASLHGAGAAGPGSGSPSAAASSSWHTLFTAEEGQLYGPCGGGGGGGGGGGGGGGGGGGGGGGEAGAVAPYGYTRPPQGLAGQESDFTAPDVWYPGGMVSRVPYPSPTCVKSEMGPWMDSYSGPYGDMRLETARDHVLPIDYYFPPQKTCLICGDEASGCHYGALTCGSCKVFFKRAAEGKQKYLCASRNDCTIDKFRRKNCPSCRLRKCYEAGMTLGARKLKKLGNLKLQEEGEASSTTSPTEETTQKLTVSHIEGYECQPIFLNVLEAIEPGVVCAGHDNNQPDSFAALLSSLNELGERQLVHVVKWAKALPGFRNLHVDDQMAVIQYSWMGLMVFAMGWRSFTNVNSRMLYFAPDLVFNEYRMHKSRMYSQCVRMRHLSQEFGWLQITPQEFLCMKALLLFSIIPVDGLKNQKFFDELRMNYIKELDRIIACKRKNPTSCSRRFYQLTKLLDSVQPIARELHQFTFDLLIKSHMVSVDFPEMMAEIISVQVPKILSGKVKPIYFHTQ
Test: Reporter assay of an androgen receptor responsive sequence (luciferase, transiently transfected HEK293 cells)
Assay type: cell-based
Settings: 24 hours incubation, relative to activity of 100 nM DHT, read-out: AR transcriptive activity (pEC50) (converted)
endpoint: log10(EC50) (log10 of the value in µM)

compound	measurementTarget	log10(EC50)
CCc1oc(N(Cc2ccc(C(F)(F)F)c(F)c2)c2ccc(C#N)cc2)nc1C(=O)NS(C)(=O)=O [Compound 655]	human androgen receptor (Homo sapiens, UniProt P10275)	-0.40
Cc1sc(N(Cc2ccccc2)c2ccc(C#N)cc2)nc1C(=O)NS(=O)(=O)Cc1ccccn1 [Compound 396]	human androgen receptor (Homo sapiens, UniProt P10275)	0.80
CS(=O)(=O)NC(=O)c1nc(N(Cc2ccc3occc3c2)c2ccc(C#N)cc2)sc1Br [Example 221]	human androgen receptor (Homo sapiens, UniProt P10275)	-1.30
Cc1sc(N(CCC2CCCCC2)c2ccc(C#N)cc2)nc1C(=O)NS(C)(=O)=O [Compound 407]	human androgen receptor (Homo sapiens, UniProt P10275)	-0.70
Cc1sc(N(Cc2ccc(C(F)(F)F)cc2F)c2ccc(C#N)cc2)nc1C(=O)NS(C)(=O)=O [Compound 498]	human androgen receptor (Homo sapiens, UniProt P10275)	-1.00
Cc1sc(N(Cc2ccc(OC(F)(F)F)cc2)c2ccc(C#N)cc2)nc1C(=O)NS(=O)(=O)CC1CCOC1 (stereo not shown) [Example 202]	human androgen receptor (Homo sapiens, UniProt P10275)	-0.90
